Measured values drawn from ChEMBL document CHEMBL2040775 for this set.

assay.procedure: Antioxidant activity assessed as authentic peroxynitrite radical scavenging activity after 5 mins by spectrophotometry
Format: functional
metric.name: IC50 (µM)
Provide the reading as a plain figure in µM.

The reported IC50 of the compound `C=C1CC[C@]2(C(=O)O[C@@H]3O[C@H](CO)[C@@H](O)[C@H](O)[C@H]3O)CC[C@]3(C)C(=CC[C@@H]4[C@@]5(C)CC[C@H](O[C@@H]6O[C@H](C(=O)O)[C@@H](O)[C@H](O)[C@H]6O)[C@@](C)(C=O)[C@@H]5CC[C@]43C)[C@@H]2C1` was 4.9

The reported IC50 of the compound `CC1(C)CC[C@]2(C(=O)O)CC[C@]3(C)C(=CC[C@@H]4[C@@]5(C)CC[C@H](O[C@@H]6O[C@H](C(=O)O)[C@@H](O)[C@H](O)[C@H]6O)[C@@](C)(C=O)[C@@H]5CC[C@]43C)[C@@H]2C1` was 21.9

The reported IC50 of the compound `CC1(C)CC[C@]2(C(=O)O[C@@H]3O[C@H](CO)[C@@H](O)[C@H](O)[C@H]3O)CC[C@]3(C)C(=CC[C@@H]4[C@@]5(C)CC[C@H](O[C@@H]6O[C@H](C(=O)O)[C@@H](O)[C@H](O)[C@H]6O)[C@@](C)(C=O)[C@@H]5CC[C@]43C)[C@@H]2C1` was 7.1

The reported IC50 of the compound `O=C1O[C@H]([C@@H](O)CO)C(O)=C1O` was 1.5
